Data provenance is the supplement of paper PMC6555819.

Tested on: PPARg DBDmut:RXRa IVT, anti-PPARg (DBD mutation: PPARg1 K132A/R137A, NR concentration 270 nM, RXRa partner concentration 90 nM)
Test: PBM binding z-score (relative to random genomic background probes); higher = stronger binding; sequences stand for … in GC…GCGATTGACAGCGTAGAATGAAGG
Label Not fulfilled if PBM binding z-score falls below 0.6; label Fulfilled in every other case.

sequence input	cat
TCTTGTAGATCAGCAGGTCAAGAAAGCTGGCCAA	Not fulfilled
CGAACTAGGTCAGAACAGGACGGTGAAGGATGAT	Fulfilled
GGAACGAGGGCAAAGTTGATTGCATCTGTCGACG	Not fulfilled
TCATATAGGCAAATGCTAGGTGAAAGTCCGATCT	Not fulfilled
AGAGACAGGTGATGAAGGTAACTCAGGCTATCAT	Fulfilled
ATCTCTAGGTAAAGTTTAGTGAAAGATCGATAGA	Fulfilled
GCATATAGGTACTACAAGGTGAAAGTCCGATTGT	Fulfilled
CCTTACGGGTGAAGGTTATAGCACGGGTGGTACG	Not fulfilled
ATCGAAAGGTCGTGAGGTCAGTATACAGAAAGGC	Fulfilled
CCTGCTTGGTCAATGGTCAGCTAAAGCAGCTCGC	Not fulfilled
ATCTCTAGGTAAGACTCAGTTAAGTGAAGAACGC	Fulfilled
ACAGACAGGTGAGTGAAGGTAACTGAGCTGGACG	Not fulfilled
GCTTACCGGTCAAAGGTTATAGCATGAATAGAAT	Fulfilled
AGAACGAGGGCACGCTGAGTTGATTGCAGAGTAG	Not fulfilled
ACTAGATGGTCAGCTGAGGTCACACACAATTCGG	Fulfilled
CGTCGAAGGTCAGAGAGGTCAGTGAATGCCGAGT	Not fulfilled
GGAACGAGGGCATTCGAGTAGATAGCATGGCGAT	Not fulfilled
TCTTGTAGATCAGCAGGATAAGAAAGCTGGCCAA	Not fulfilled
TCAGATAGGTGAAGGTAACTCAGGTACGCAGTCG	Not fulfilled
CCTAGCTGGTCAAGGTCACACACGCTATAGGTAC	Fulfilled
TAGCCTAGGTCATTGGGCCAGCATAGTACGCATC	Not fulfilled
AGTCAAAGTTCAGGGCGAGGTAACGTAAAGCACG	Not fulfilled
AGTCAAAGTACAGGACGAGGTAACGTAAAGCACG	Not fulfilled
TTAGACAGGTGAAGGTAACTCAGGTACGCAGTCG	Fulfilled
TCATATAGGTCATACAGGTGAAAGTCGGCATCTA	Fulfilled
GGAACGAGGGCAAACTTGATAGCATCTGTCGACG	Not fulfilled

----------
Tested on: RARa homodimer (NR concentration 270 nM)
Test: PBM binding z-score (relative to random genomic background probes); higher = stronger binding; sequences stand for … in GC…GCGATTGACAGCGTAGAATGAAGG
Records here are stratified by PBM binding z-score; strata: low: < -0.4; medium: ≥ -0.4 and < 1; high: ≥ 1

sequence input	cat
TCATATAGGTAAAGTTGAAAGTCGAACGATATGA	medium
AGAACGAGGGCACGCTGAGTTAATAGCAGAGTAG	low
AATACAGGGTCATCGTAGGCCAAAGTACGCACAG	high
GGAACGAGGGCGAAGTTGATAGCATCTGTCGACG	low
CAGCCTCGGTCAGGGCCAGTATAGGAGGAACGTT	low
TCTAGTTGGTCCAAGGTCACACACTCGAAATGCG	high
ACTATTAGTTGGGACGAGGGCAACCGATAGGTTG	medium
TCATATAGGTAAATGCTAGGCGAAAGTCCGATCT	medium
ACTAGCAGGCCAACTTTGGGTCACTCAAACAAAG	low
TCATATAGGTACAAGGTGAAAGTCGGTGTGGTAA	high
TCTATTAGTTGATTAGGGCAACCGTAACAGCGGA	high
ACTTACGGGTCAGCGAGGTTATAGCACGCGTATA	medium
